target.system: T1, human plasma kallikrein (human, UniProt P03952 20-390; P03952 391-638)
T1 construct: two disulfide-linked chains; NP_000883.2; also called pKal; hpKal
T1 sequence (P03952 20-390 limits assumed, chain 1 of 2): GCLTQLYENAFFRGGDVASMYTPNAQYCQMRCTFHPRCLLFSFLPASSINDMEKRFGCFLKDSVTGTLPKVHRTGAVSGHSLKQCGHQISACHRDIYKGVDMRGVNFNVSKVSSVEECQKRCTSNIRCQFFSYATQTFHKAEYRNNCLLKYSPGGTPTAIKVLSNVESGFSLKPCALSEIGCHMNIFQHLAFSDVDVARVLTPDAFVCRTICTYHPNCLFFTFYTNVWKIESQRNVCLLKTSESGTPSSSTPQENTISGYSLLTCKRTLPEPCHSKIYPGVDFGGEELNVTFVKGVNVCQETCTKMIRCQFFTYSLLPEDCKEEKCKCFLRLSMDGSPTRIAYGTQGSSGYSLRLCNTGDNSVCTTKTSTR
T1 sequence (P03952 391-638 limits assumed, chain 2 of 2): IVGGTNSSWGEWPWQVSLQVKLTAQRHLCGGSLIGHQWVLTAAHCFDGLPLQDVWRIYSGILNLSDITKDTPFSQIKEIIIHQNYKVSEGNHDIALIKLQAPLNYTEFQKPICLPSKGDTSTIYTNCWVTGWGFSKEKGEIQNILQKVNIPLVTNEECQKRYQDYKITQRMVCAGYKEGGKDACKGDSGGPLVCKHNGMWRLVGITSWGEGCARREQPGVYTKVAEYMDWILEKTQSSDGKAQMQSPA
assay.text: ELISA, biotinylated pKal signal over streptavidin background
readout: ELISA (T/B)
Numbers only.

Here are 2 binders together with their reported answers.
binder: M9-H03 (Fab, V domains shown) VH: EVQLLESGGGLVQPGGSLRLSCAASGFTFSWYSMGWVRQAPGKGLEWVSYIVPSGGYTMYADSVKGRFTISRDNSKNTLYLQMNSLRAEDTAVYYCARDPGVSYYYYGMDVWGQGTTVTVSS VL: QYELTQAPSVSVAPGQTASITCSGDKLGNRYTSWYQQKPGQSPVLVIFQDNKRPSGIPERFSGSNSGNTATLTISGTQAMDEADYYCQALDSNTYVFGTGTKVTVL
measured.value: 4.4
--
binder: M8-H04 (Fab, V domains shown) VH: EVQLLESGGGLVQPGGSLRLSCAASGFTFSGYWMGWVRQAPGKGLEWVSSISSSGGWTQYADSVKGRFTISRDNSKNTLYLQMNSLRAEDTATYYCARDDEIAAGGAFDIWGQGAMVTVSS VL: DIQMTQSPSSLSASIGDRVTITCRASQYISTYLNWYEQKPGKAPKLLIYGTSSLQSGVPSRFSGSGSGTEFSLTISSLQPEDFATYYCQQSFTTPFTFGQGTKLEIK
measured.value: 3.3

Moving on to the next binder.
Reported ELISA (T/B) of M76-H02 (Fab, V domains shown) VH: EVQLLESGGGLVQPGGSLRLSCAASGFTFSMYWMQWVRQAPGKGLEWVSYIYPSGGPTKYADSVKGRFTISRDNSKNTLYLQMNSLRAEDTAVYYCARPSGSYGDAFDIWGQGTMVTVSS VL: DIQMTQSPSSLSASEGDRVTITCRASQDISVYLNWYQMKSGKAPKLLIYGGASLQSGVPARFSGSGYGTDFTLTITDLRPEDFATYYCQQSYSLPFTFGGGTKVEIK : 13.4
